Measured IC50 values are reported for all entries that follow.
Test target: UniProt:P24941
Experiment summary: Inhibitory Effect Assay
Procedure: A compound dissolved in DMSO (50 nL) was transferred to the kinase reaction plate by using acoustic technology (Echo). 5 μL of a CDK kinase dilution solution was added to the kinase reaction plate and incubated at room temperature for 10 minutes after centrifugation. 5 μL of a substrate premix solution was added to the plate, and the final concentrations of the substrate and the ATP in each well were shown in Table 1. After centrifugation, the reaction was performed at 30° C. for 120 minutes.
Please answer using the number first and the unit second.

COc1cc(F)ccc1-c1cc(NC(=O)[C@H]2CCC[C@@H](NC(=O)CO)C2)ncc1F; 564 nM
COc1cc(F)ccc1-c1cc(NC(=O)[C@H]2CCC[C@@H](NC(=O)c3ccccn3)C2)ncc1F; 823 nM
CC(=O)N[C@@H]1CCC[C@H](C(=O)Nc2cc(-c3cccc4ccoc34)c(F)cn2)C1; 638 nM

Q: Quote UniProt:P24941 IC50 for entry COc1cc(F)ccc1-c1cc(NC(=O)[C@H]2CCC[C@@H](NC(=O)Nc3cc(C)no3)C2)ncc1F .
A: 1250 nM

Q: Quote UniProt:P24941 IC50 for entry COc1ccccc1-c1cc(NC(=O)[C@H]2CCC[C@@H](NC(C)=O)C2)ncc1F .
A: 1440 nM

Q: Quote UniProt:P24941 IC50 for entry COc1cc(F)ccc1-c1cc(NC(=O)[C@H]2CCC[C@@H](NS(C)(=O)=O)C2)ncc1F .
A: 2050 nM

Q: Quote UniProt:P24941 IC50 for entry COc1cc(F)ccc1-c1cc(NC(=O)[C@H]2CCC[C@@H](NC(C)=O)C2)ncc1F .
A: 475 nM
